Collected Ki values appear next to each entry.
Tested target: Human β2 adrenoceptor (Homo sapiens, UniProt P07550)
Construct: purchased Perkin Elmer
Sequence (P07550 whole entry): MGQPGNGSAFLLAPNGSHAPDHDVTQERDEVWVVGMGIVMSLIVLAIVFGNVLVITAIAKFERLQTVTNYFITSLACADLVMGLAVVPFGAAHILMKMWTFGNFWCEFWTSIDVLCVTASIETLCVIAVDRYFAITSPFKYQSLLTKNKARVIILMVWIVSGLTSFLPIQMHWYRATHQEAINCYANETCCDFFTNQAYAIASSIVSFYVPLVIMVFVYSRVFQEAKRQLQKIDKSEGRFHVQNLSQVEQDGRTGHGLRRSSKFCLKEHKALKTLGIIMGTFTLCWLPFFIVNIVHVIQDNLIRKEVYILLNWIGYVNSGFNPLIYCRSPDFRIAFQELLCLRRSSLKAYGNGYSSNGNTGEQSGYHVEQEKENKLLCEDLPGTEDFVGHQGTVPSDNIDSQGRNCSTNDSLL
Assay details: β2 Adrenoceptor Radioligand Binding Assay
Test conditions: human β2 adrenoceptor membranes, 125-I Cyanopindolol; read-out: B2 binding affinity (Ki class)

O=C(CCc1ccc(OCCCCCNC[C@H](O)c2ccc(O)c3[nH]c(=O)ccc23)cc1)N1CC(C(=O)O[C@H]2CN3CCC2CC3)(c2ccccc2)C1 [Compound 5A] ... < 1 nM
O=C(NCc1ccc(CNC[C@H](O)c2ccc(O)c3[nH]c(=O)ccc23)cc1)c1ccc(C(=O)N2CCC(C(=O)O[C@H]3CN4CCC3CC4)(c3ccccc3)CC2)cc1 [Compound 23] ... 1 to 10 nM
CN(CCCNC[C@H](O)c1ccc(O)c2[nH]c(=O)ccc12)C(=O)Cc1ccc(CC(=O)N2CCC(C(=O)O[C@H]3CN4CCC3CC4)(c3ccccc3)CC2)cc1 [Compound 47] ... 1 to 10 nM
O=C(CCc1ccc(OCc2ccc(CNC[C@H](O)c3ccc(O)c4[nH]c(=O)ccc34)cc2)cc1)N1CC(C(=O)O[C@H]2CN3CCC2CC3)(c2ccccc2)C1 [Compound 13A] ... 1 to 10 nM

Kindly consider the entry below.
Ki lookup needed for O=C(Cc1ccc(OCc2ccc(CNC[C@H](O)c3ccc(O)c4[nH]c(=O)ccc34)cc2)cc1)N1CC(C(=O)O[C@H]2CN3CCC2CC3)(c2ccccc2)C1 [Compound 15A] , thanks.
< 1 nM
